# system.under.test: recombinant human PAD4 (human, UniProt Q9UM07 1-663)
# Sequence (Q9UM07 whole entry): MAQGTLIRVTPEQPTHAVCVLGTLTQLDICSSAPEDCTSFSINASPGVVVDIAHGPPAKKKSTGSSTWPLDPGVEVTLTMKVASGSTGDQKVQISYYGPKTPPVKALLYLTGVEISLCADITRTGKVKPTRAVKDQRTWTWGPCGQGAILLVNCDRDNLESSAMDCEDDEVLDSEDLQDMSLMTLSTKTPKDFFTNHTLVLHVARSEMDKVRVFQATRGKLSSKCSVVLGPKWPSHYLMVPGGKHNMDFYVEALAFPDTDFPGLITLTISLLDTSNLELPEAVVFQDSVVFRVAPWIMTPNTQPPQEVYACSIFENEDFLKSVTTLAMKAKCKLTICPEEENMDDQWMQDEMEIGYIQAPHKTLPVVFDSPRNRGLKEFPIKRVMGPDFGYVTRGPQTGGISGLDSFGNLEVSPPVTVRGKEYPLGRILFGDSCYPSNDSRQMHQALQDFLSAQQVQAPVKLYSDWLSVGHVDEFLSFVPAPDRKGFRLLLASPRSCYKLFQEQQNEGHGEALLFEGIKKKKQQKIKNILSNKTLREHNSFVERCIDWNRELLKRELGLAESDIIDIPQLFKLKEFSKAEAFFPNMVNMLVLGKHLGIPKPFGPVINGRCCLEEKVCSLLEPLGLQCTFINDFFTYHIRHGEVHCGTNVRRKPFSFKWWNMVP
# protocol.details: cell-based or functional assay
Square brackets hold non-standard residues; d marks the D form. * marks the point of attachment. Orn(fluoroacetimidoyl) = N=C(CF)NCCC[C@H](N)C(=O)O; 2Naphthylsulfonyl = O=S(=O)(c1ccc2ccccc2c1)*; AEEA = NCCOCCOCC(=O)O
measured.property: Inhibition of PAD4: value at 10 µM inhibitor (0 µM: 67) (%)
# value in %; strip the unit string

Examples from the recorded data:
binder	numeric.readout
Ac-KWH[Orn(fluoroacetimidoyl)]DFF-NH2 (SMILES CC(=O)N[C@@H](CCCCN)C(=O)N[C@@H](Cc1c[nH]c2ccccc12)C(=O)N[C@@H](Cc1c[nH]cn1)C(=O)N[C@@H](CCCNC(=N)CF)C(=O)N[C@@H](CC(=O)O)C(=O)N[C@@H](Cc1ccccc1)C(=O)N[C@@H](Cc1ccccc1)C(N)=O) [0748-09FA]	51
Ac-KWH[Orn(fluoroacetimidoyl)]DFF[AEEA]-NH2 (SMILES CC(=O)N[C@@H](CCCCN)C(=O)N[C@@H](Cc1c[nH]c2ccccc12)C(=O)N[C@@H](Cc1c[nH]cn1)C(=O)N[C@@H](CCCNC(=N)CF)C(=O)N[C@@H](CC(=O)O)C(=O)N[C@@H](Cc1ccccc1)C(=O)N[C@@H](Cc1ccccc1)C(=O)NCCOCCOCC(N)=O) [0837-14FA]	54

Lab note: next binder to report on.
Q. Recorded Inhibition of PAD4: value at 10 µM inhibitor (0 µM: 67) for 2Naphthylsulfonyl-KWH[Orn(fluoroacetimidoyl)]DFF-NH2 (SMILES N=C(CF)NCCC[C@H](NC(=O)[C@H](Cc1c[nH]cn1)NC(=O)[C@H](Cc1c[nH]c2ccccc12)NC(=O)[C@H](CCCCN)NS(=O)(=O)c1ccc2ccccc2c1)C(=O)N[C@@H](CC(=O)O)C(=O)N[C@@H](Cc1ccccc1)C(=O)N[C@@H](Cc1ccccc1)C(N)=O) [0837-30FA] , please?
A. 37

Source of measurements: patent US20110142868A1
